Every entry's value here was drawn from patent US20070167412A1.

The reader will find GI50 measurements below, all made with Lung-NSC NCI-H460.
Field: numeric (µg/mL). Do not append units.

Molecule: COc1ccc(/C=C/c2cc(Cl)c(OC)c(OC)c2)cc1O [Compound 12b]
GI50 (µg/mL): 0.034

Molecule: COc1ccc(/C=C\c2cc(I)c(OC)c(OC)c2)cc1O [Compound 14a]
GI50 (µg/mL): 0.00019

Now for another entry.
Query: What GI50 value was documented for this molecule, COc1ccc(/C=C/c2cc(I)c(OC)c(OC)c2)cc1O [Compound 14b] ?
Reply: 0.21

----------
# GI50 measurements, system: Breast MCF-7
// units = µg/mL; emit number, no label

Compound: COc1ccc(/C=C/c2cc(Cl)c(OC)c(OC)c2)cc1O [Compound 12b]
Measurement type: GI50
Numeric value: 0.041

Query: What measured GI50 is associated with COc1ccc(/C=C/c2cc(I)c(OC)c(OC)c2)cc1O [Compound 14b] on Breast MCF-7?
Reply: 0.18

Query: Any idea what GI50 came out for COc1ccc(/C=C\c2cc(I)c(OC)c(OC)c2)cc1O [Compound 14a] on Breast MCF-7?
Reply: 0.00022
